target.system: Clade C DU172.17 gp120 protein (HIV-1 Clade C, DU172.17)
assay.details: BLI (Octet), IgG on anti-hIgG Fc sensor, gp120 analyte, 1:1 fit
The label depends only on kon: T if it is at least 20000 M⁻¹ s⁻¹, F if it is smaller.

Example results:
binder: Germ12_NglycoSA_CysCA (antibody, V domains shown) VH: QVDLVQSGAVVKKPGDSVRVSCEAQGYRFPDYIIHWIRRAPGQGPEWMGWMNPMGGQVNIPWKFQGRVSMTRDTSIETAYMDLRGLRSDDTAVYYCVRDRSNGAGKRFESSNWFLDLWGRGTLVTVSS VL: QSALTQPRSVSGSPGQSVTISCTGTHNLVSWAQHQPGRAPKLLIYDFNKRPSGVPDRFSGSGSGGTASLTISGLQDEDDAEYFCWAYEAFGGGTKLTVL
class.label: F

binder: NglycoND (antibody, V domains shown) VH: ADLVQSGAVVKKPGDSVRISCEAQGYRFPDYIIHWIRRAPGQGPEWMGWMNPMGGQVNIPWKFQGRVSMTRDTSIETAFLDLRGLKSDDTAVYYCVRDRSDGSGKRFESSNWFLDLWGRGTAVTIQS VL: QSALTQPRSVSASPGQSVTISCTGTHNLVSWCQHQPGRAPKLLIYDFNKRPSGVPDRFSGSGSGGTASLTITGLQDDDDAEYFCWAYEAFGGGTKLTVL
class.label: T

binder: CysCA (antibody, V domains shown) VH: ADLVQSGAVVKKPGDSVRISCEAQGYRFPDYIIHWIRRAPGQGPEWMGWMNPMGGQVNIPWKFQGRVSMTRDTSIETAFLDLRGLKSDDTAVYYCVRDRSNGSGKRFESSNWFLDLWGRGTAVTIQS VL: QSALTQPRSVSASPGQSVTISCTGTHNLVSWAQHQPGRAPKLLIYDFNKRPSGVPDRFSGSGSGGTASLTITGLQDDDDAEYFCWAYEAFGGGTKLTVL
class.label: T

binder: Germ17 (antibody, V domains shown) VH: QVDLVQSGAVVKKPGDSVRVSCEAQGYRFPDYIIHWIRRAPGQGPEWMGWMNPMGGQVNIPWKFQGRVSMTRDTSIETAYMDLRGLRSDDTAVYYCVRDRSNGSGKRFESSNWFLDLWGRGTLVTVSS VL: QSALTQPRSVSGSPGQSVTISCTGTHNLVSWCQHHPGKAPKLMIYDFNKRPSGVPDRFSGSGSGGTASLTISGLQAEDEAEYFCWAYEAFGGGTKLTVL
class.label: F

Now consider a different binder.
Lookup: Given CysCV (antibody, V domains shown) VH: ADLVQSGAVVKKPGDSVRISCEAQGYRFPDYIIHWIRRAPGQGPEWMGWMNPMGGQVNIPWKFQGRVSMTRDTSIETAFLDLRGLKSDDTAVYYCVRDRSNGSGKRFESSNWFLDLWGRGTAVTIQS VL: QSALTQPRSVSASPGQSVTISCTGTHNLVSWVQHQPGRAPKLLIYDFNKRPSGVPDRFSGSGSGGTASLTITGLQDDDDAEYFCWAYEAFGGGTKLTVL , state whether its kon is at least 20000 M⁻¹ s⁻¹.
Found: F
